Origin of the recorded values: ChEMBL document CHEMBL4266006

biological target: Human immunodeficiency virus type 1 integrase (Human immunodeficiency virus 1, UniProt Q7ZJM1); assay: Inhibition of N-terminal His/flag-tagged HIV1 integrase expressed in Escherichia coli BL21 (DE3) incubated for 2.5 hrs by HTRF assay; settings: read-out: EC50
Sequence (Q7ZJM1 whole entry): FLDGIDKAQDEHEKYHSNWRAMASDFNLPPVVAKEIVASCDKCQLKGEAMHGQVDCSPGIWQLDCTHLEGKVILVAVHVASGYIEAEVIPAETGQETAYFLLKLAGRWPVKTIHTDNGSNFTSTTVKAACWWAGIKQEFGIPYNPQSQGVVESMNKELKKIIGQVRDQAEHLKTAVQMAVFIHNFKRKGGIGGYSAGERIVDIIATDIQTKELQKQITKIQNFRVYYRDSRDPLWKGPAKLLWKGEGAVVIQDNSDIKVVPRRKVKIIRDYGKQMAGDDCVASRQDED
observed property: pEC50
// scale note: pEC50 = -log10(conc_M); give the bare number

Example results:
Cc1nc2ccccc2c(-c2ccoc2)c1C(OC(C)(C)C)C(=O)O (stereo not given) ... 5.66
Cc1nc2ccccc2c(-c2ccc(C(F)(F)F)cc2)c1C(OC(C)(C)C)C(=O)O (stereo not given) ... 6.14
Cc1ccccc1-c1c(C(OC(C)(C)C)C(=O)O)c(C)nc2ccccc12 (stereo not given) ... 6.29
Cc1nc2ccc(Br)cc2c(-c2ccc(Cl)cc2)c1C(OC(C)(C)C)C(=O)O (stereo not given) ... 7.15
CC(=O)c1ccc(-c2c(C(OC(C)(C)C)C(=O)O)c(C)nc3ccccc23)cc1 (stereo not given) ... 5.86
CSc1ccc(-c2c(C(OC(C)(C)C)C(=O)O)c(C)nc3ccccc23)cc1 (stereo not given) ... 6.31
COc1cccc(-c2c(C(OC(C)(C)C)C(=O)O)c(C)nc3ccccc23)c1 (stereo not given) ... 5.86
CSc1ccccc1-c1c(C(OC(C)(C)C)C(=O)O)c(C)nc2ccccc12 (stereo not given) ... 5.35
COc1ccccc1-c1c(C(OC(C)(C)C)C(=O)O)c(C)nc2ccccc12 (stereo not given) ... 5.08

Data point: Cc1nc2ccccc2c(-c2ccc3c(c2)OCCO3)c1C(OC(C)(C)C)C(=O)O (stereo not given) ; pEC50 = 7.10

====

biological target: Human immunodeficiency virus type 1 integrase (Human immunodeficiency virus 1); test: Inhibition of N-terminal His/flag-tagged HIV1 integrase expressed in Escherichia coli BL21 (DE3) incubated for 2.5 hrs by HTRF assay; settings: read-out: EC50
observed property: pEC50
// scale note: pEC50 = -log10(conc_M); give the bare number

Example results:
Cc1nc2ccccc2c(-c2ccccc2Cl)c1C(OC(C)(C)C)C(=O)O (stereo not drawn) ... 6.59
Cc1nc2ccccc2c(-c2ccc(Cl)cc2)c1C(OC(C)(C)C)C(=O)O (stereo not drawn) ... 7.00
Cc1nc2ccccc2c(-c2ccc(F)cc2)c1C(OC(C)(C)C)C(=O)O (stereo not drawn) ... 6.31
Cc1nc2ccccc2c(-c2ccc(C#N)cc2)c1C(OC(C)(C)C)C(=O)O (stereo not drawn) ... 5.53
Cc1nc2ccccc2c(-c2ccc3c(c2)CCCO3)c1C(OC(C)(C)C)C(=O)O (stereo not drawn) ... 7.57
Cc1nc2ccccc2c(-c2ccccc2F)c1C(OC(C)(C)C)C(=O)O (stereo not drawn) ... 6.24
CSc1cccc(-c2c(C(OC(C)(C)C)C(=O)O)c(C)nc3ccccc23)c1 (stereo not drawn) ... 6.00

Here is another compound to look at.
The reported pEC50 value, Human immunodeficiency virus type 1 integrase (Human immunodeficiency virus 1), for Cc1nc2ccccc2c(-c2ccccc2)c1C(OC(C)(C)C)C(=O)O (stereo not drawn) reads 5.88
